# Test system: UISO
# assay explanation: qHTS assay to identify novel small-molecules to repurpose for Merkel cell carcinoma treatment (AID 1296009); further: nearly all actives have a fitted effect of over 60% in size
# recorded conditions: MCC and control cell lines, CellTiter-Glo viability, 72 h; series mostly up to 46 µM
Records with an inconclusive call do not appear. The source made the active and inactive calls. The call rests on the fitted dose curve; in most records, active means well fitted inhibition curve with a large enough effect; inconclusive means small, poorly fitted or top-dose-only effect; inactive means flat fitted curve, though single readings scatter.
Select the correct class. Options are yes (1) = active, no (0) = inactive and nothing else.

Examples from the recorded data:
- compound: "CCOc1ccc(NC(=O)CC(C)O)cc1 (centres undefined)"
  target: "UISO"
  class: "no (0)"
- compound: "COC(=O)[C@@H]1CC2=CC(=O)CC[C@]2(C)[C@@]23O[C@@H]2C[C@@]2(C)[C@@H](CC[C@@]24CCC(=O)O4)[C@H]13"
  target: "UISO"
  class: "no (0)"
- compound: "Oc1ccc(Cl)cc1Sc1cc(Cl)ccc1O"
  target: "UISO"
  class: "yes (1)"
- compound: "CC(C)(Oc1ccc(Cl)cc1)C(=O)O"
  target: "UISO"
  class: "no (0)"
- compound: "CC(=O)OCC(=O)[C@@]12N=C(C)O[C@@H]1C[C@H]1[C@@H]3CCC4=CC(=O)C=C[C@]4(C)[C@H]3[C@@H](O)C[C@@]12C"
  target: "UISO"
  class: "no (0)"
- compound: "Nc1nc2ncc(CNc3ccc(C(=O)N[C@@H](CCC(=O)O)C(=O)O)cc3)nc2c(=O)[nH]1"
  target: "UISO"
  class: "no (0)"
- compound: "Cc1ccccc1C(=O)Nc1ccc(C(=O)N2CCCC(N(C)C)c3ccccc32)cc1 (centres undefined)"
  target: "UISO"
  class: "no (0)"
- compound: "Cc1c(N(C)CS(=O)(=O)O)c(=O)n(-c2ccccc2)n1C"
  target: "UISO"
  class: "no (0)"

[Q] In this assay, the call recorded for COc1cc2c(cc1OC)C(=O)C(CC1CCN(Cc3ccccc3)CC1)C2 (centres undefined) was what?
[A] no (0)

* * *

# System: CP185
# assay explanation: qHTS profiling for inhibitors of Plasmodium falciparum proliferation (AID 504749); further: nearly all actives have a fitted effect of over 60% in size
# recorded conditions: P. falciparum in erythrocytes, SYBR Green DNA, 72 h; series mostly up to 28.7 µM
Inconclusive results are not listed. The source made the active and inactive calls. The call rests on the fitted dose curve; in most records, active means well fitted inhibition curve with a large enough effect; inconclusive means small, poorly fitted or top-dose-only effect; inactive means flat fitted curve, though single readings scatter.
Select the correct class. Options are active, inactive and nothing else.

Examples from the recorded data:
- compound: "COCc1c(C(C)C)nc(C(C)C)c(/C=C/[C@@H](O)C[C@@H](O)CC(=O)O)c1-c1ccc(F)cc1"
  class: "inactive"
- compound: "O=C1CCC(c2ccc(-n3ccnc3)cc2)=NN1"
  class: "inactive"
- compound: "CC(=O)OCC(=O)[C@@]1(OC(C)=O)[C@@H](C)C[C@H]2[C@@H]3C[C@H](F)C4=CC(=O)C=C[C@]4(C)[C@@]3(F)[C@@H](O)C[C@@]21C"
  class: "inactive"
- compound: "CC(=O)Oc1ccc(C(=C2CCCCC2)c2ccc(OC(C)=O)cc2)cc1"
  class: "inactive"
- compound: "C#C[C@]1(O)CC[C@H]2[C@@H]3CCc4cc(OC5CCCC5)ccc4[C@H]3CC[C@@]21C"
  class: "inactive"
- compound: "Cc1cc(N)c2cc(NC(=O)Nc3ccc4nc(C)cc(N)c4c3)ccc2n1"
  class: "active"
- compound: "C#C[C@]1(OC(C)=O)CC[C@H]2[C@@H]3CCC4=C[C@@H](OC(C)=O)CC[C@@H]4[C@H]3CC[C@@]21C"
  class: "inactive"
- compound: "Oc1c(I)cc(Cl)c2cccnc12"
  class: "active"
- compound: "COc1ccc(CCN2CCC(Nc3nc4ccccc4n3Cc3ccc(F)cc3)CC2)cc1"
  class: "active"
- compound: "CC(=O)OCC(=O)NCCCOc1cccc(CN2CCCCC2)c1"
  class: "inactive"

[Q] In this assay, the call recorded for CCCCN1CCCC1C(=O)Nc1c(C)cc(C)cc1C (configuration not stated) was what?
[A] inactive

[Q] In this assay, the call recorded for NC(CS)C(=O)O (configuration not stated) was what?
[A] inactive

[Q] In this assay, the call recorded for `CC(=O)N(O)CCCCCNC(=O)CCC(=O)N(O)CCCCCNC(=O)CCC(=O)N(O)CCCCCN` was what?
[A] inactive

[Q] In this assay, the call recorded for `Cc1c(C)n(Cc2ccccc2)c2ccc(C(=O)OCCN(C)C)cc12` was what?
[A] inactive

* * *

# assay explanation: qHTS for differential inhibitors of proliferation of Plasmodium falciparum line HB3 (AID 1886);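 further: parasites grown with compound for 72 h before SYBR Green readout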
# recorded conditions: Plasmodium falciparum HB3 proliferation inhibition; series mostly up to 28.7 µM
Results filed as inconclusive are left out. Active and inactive are the calls of the source. Calls come from the whole dose curve; as a rule, active = well fitted curve in the direction sought with a large enough effect; inconclusive = small, poorly fitted or top-dose-only effect, or another doubt; inactive = no such curve, though single readings can be large or run the other way.
Select the correct class. Options are class 1 (active), class 0 (inactive) and nothing else.

Examples from the recorded data:
- compound: "CCC(NC(C)C)C(O)c1ccc(O)c(O)c1 (stereo unspecified)"
  class: "class 1"
- compound: "CCCn1c(=O)[nH]c(=O)c2[nH]cnc21"
  class: "class 0"
- compound: "COc1cc(NS(C)(=O)=O)ccc1Nc1c2ccccc2nc2ccccc12"
  class: "class 1"
- compound: "CC(C)COC(=O)OCN1C(=O)CN(CCN2CC(=O)N(COC(=O)OCC(C)C)C(=O)C2)CC1=O"
  class: "class 0"
- compound: "O=C(O)c1cc2cc(Cc3cccnc3)ccc2o1"
  class: "class 0"
- compound: "CN=C(NC#N)Nc1ccc(C2=NNC(=O)CC2C)cc1 (stereo unspecified)"
  class: "class 0"

[Q] In this assay, the call recorded for `C[C@@H]1C(=O)NC2=Nc3cccc(Cl)c3CN21` was what?
[A] class 0

[Q] In this assay, the call recorded for CNCCC(Oc1ccccc1C)c1ccccc1 (stereo unspecified) was what?
[A] class 0

[Q] In this assay, the call recorded for `CNCCC=C1c2ccccc2CCc2ccccc21` was what?
[A] class 1

[Q] In this assay, the call recorded for `Nc1cc(Cl)c(NC2=NCCN2)c(Cl)c1` was what?
[A] class 0

[Q] In this assay, the call recorded for `C1CCc2nnnn2CC1` was what?
[A] class 0

[Q] In this assay, the call recorded for `C[C@]12CC[C@@H]3c4ccc(O)cc4CC[C@H]3[C@@H]1CC[C@@H]2O` was what?
[A] class 0

[Q] In this assay, the call recorded for `O=C1CCC(c2ccc(-n3ccnc3)cc2)=NN1` was what?
[A] class 0

* * *

# Test system: CP269
# assay explanation: qHTS profiling for inhibitors of Plasmodium falciparum proliferation (AID 504749); further: nearly all actives have a fitted effect of over 60% in size
# recorded conditions: P. falciparum in erythrocytes, SYBR Green DNA, 72 h; series mostly up to 28.7 µM
Results filed as inconclusive are left out. Active and inactive are the calls of the source. The call rests on the fitted dose curve; in most records, active means well fitted inhibition curve with a large enough effect; inconclusive means small, poorly fitted or top-dose-only effect; inactive means flat fitted curve, though single readings scatter.
Select the correct class. Options are 1 (yes) (active), 0 (no) (inactive) and nothing else.

Examples from the recorded data:
- given smiles: "CCCn1c(=O)[nH]c(=O)c2[nH]cnc21"
  class: "0 (no)"
- given smiles: "CC[N+](CC)(CCNC(=O)C(=O)NCC[N+](CC)(CC)Cc1ccccc1Cl)Cc1ccccc1Cl"
  class: "1 (yes)"
- given smiles: "O=c1ccc2ccccc2o1"
  class: "0 (no)"

[Q] In this assay, the call recorded for `COc1ccc(CN2CCN(C(c3ccc(F)cc3)c3ccc(F)cc3)CC2)c(OC)c1OC` was what?
[A] 1 (yes)

[Q] In this assay, the call recorded for `O=C1CCC(c2ccc(-n3ccnc3)cc2)=NN1` was what?
[A] 0 (no)

[Q] In this assay, the call recorded for `CCCCOc1ccc(OCCCN2CCOCC2)cc1` was what?
[A] 0 (no)

* * *

The following compounds are listed with their measured activity, negative = cell killing values.
# assay explanation: Drug repurposing screens with cells derived from glioblastoma tumor samples (AID 1345199); further: on the % scale 0 is the no-effect control and ±100 the full control effect; nearly all actives have a fitted effect of over 40% in size
# recorded conditions: GBM patient neurospheres viability, ATP luminescence, 48 h; at 21.3 µM (top of the series); tumour line A
Records with an inconclusive call do not appear. Calls of active or inactive are those of the source. The call rests on the fitted dose curve; in most records, active means well fitted inhibition curve with a large enough effect; inconclusive means small, poorly fitted or top-dose-only effect; inactive means flat fitted curve, though single readings scatter.

Take a look at these entries with their results.
- given smiles: "CCN(CC)C(=O)N1CCN(C)CC1"
  assay value: "-8.09% (inactive)"
- given smiles: "CC(=O)OCC(=O)[C@@]12OC(C)(C)O[C@@H]1C[C@H]1[C@@H]3C[C@H](F)C4=CC(=O)C=C[C@]4(C)[C@@]3(F)[C@@H](O)C[C@@]12C"
  assay value: "-1.98% (inactive)"
- given smiles: "CC(=O)N(O)CCCCCNC(=O)CCC(=O)N(O)CCCCCNC(=O)CCC(=O)N(O)CCCCCN"
  assay value: "-22.8% (inactive)"
- given smiles: "CC1(C)O[C@@H]2C[C@H]3[C@@H]4C[C@H](F)C5=CC(=O)C=C[C@]5(C)[C@H]4[C@@H](O)C[C@]3(C)[C@]2(C(=O)CO)O1"
  assay value: "19% (inactive)"
- given smiles: "CC1(C)O[C@@H]2C[C@H]3[C@@H]4C[C@H](F)C5=CC(=O)CC[C@]5(C)[C@H]4[C@@H](O)C[C@]3(C)[C@]2(C(=O)CO)O1"
  assay value: "-15.3% (inactive)"

Let us move to another entry and its activity, negative = cell killing.
[Q] Report activity, negative = cell killing, nothing else, for this compound: `Cc1c(N(C)CS(=O)(=O)O)c(=O)n(-c2ccccc2)n1C`
[A] -23.9% (inactive)
